Item-by-item account of GI50
Test system: SF-295
runDescription: NCI tumour cell line growth inhibition, 48 h
Activity calls are given as the source filed them. No stated cut-off is given here; in the data, active = GI50 up to about 1.1 µM and inactive = higher.
attributeMeasured: GI50

{"columns": ["chemicalStructure", "experimentalValue"],
 "data": [
  ["Cc1cnc2c(c1)C(=O)N(c1ccc([N+](=O)[O-])cc1)S2(=O)=O", "82.8 µM (inactive)"],
  ["CC(C)NC1(C(N)=O)CCN(Cc2ccccc2)CC1", "> 100 µM (inactive)"],
  ["O=Cc1ccc2c(c1)CC1(C2)Cc2ccc(C=O)cc2C1", "> 45.2 µM (inactive)"]
]}

* * *

Tested on: OVCAR-3
runDescription: NCI tumour cell line growth inhibition, 48 h
Active and inactive are the calls of the source. No stated cut-off is given here; in the data, active = GI50 up to about 1.1 µM and inactive = higher.
Possible outcomes: active, inactive

{"columns": ["compound", "classAssignment"],
 "data": [
  ["O=c1c2nn[nH]c2nc2n1CC(c1ccccc1)S2 (stereo not drawn)", "inactive"],
  ["O=C(O)CN(CC(=O)O)C1CCCCC1N1CC(=O)OC(=O)C1 (stereo not drawn)", "inactive"],
  ["NS(=O)(=O)c1ccc(NC(=O)c2cccc3cc4ccccc4nc23)cc1", "inactive"],
  ["Cc1cc(-c2ccc(Cl)cc2)c(C#N)c(=S)n1C1OC(CO)C(O)C(O)C1O (stereo not drawn)", "inactive"],
  ["N#CN1CCC=C(c2cc3ccccc3[nH]2)C1", "inactive"],
  ["C=CCn1c2ccccc2c2c(C)c3cnccc3c(C)c21", "inactive"],
  ["Cc1cn(C2CC(n3cc(Cn4cc(Br)c(=O)[nH]c4=O)nn3)C(CO)O2)c(=O)[nH]c1=O (stereo not drawn)", "inactive"],
  ["COc1ccc(C2=C(Cl)c3cc(OC)c(OC)cc3C2=O)cc1OC", "inactive"],
  ["Cc1ccc(S(=O)(=O)N/N=C\\c2c3ccccc3[n+]([O-])c3ccccc23)cc1", "inactive"],
  ["NC(=O)C[C@H](NC(=O)C1(NC(=O)[C@H](Cc2ccc(CP(=O)(O)O)cc2)NC(=O)C(=O)O)CCCCC1)C(=O)NCCCc1cccc2ccccc12", "inactive"],
  ["O=C(CCCN1CCC2(CC1)NC(=O)c1ccccc1O2)c1ccc(F)cc1", "inactive"],
  ["COC(=O)CCC(NC(=O)C(C)NC(=O)COC1C(O)C(OC(=O)CCNc2c3ccccc3nc3cccc([N+](=O)[O-])c23)OC(OCc2ccccc2)C1NC(C)=O)C(N)=O (stereo not drawn)", "inactive"],
  ["CC(C)(C)[Si](C)(C)OCC1OC(n2ccc(=O)[nH]c2=O)C(O[Si](C)(C)C(C)(C)C)/C1=N/O (stereo not drawn)", "inactive"],
  ["CCCN(CCCC(NC(C)=O)C(=O)NCc1ccccc1)C(=O)NC (stereo not drawn)", "inactive"],
  ["COc1ccc(C(=O)N2CCN(c3ccc4c(c3)OCC(=O)N4)CC2)cc1", "inactive"],
  ["COC(=O)NC(=O)NC(Cc1ccccc1)NC(=O)OCc1ccccc1 (stereo not drawn)", "inactive"],
  ["O=C1CC(c2ccc(Cl)cc2)C2(C(=O)NC(=S)NC2=O)C(c2ccc(Cl)cc2)C1 (stereo not drawn)", "inactive"],
  ["CCOC(=O)c1c2c(n(Cc3ccccc3)c1C)C(=O)C(=O)c1ccccc1-2", "active"],
  ["CC1(C23CC4CC(CC(C4)C2)C3)n2c(=O)n(-c3ccccc3)c(=O)n2C1(C)C12CC3CC(CC(C3)C1)C2 (stereo not drawn)", "inactive"],
  ["CCc1cc2c(cc1C(=O)CCC(=O)O)CC1(C2)Cc2cc(CC)c(C(=O)CCC(=O)O)cc2C1", "inactive"],
  ["Oc1nc(-c2cccc(F)c2)nc2ccccc12", "inactive"],
  ["CC1C2=C(O)CC(C)(C)CC2=NC2=C1C(=O)CC(C)(C)C2 (stereo not drawn)", "inactive"],
  ["CCCCCCCCCCCCCCNCC(OC)OC", "inactive"]
]}
